Provenance of the data: patent US20220306617A1

Listed here: items and their measured Emax.
Target: abc isoform of human TMEM16A channel expressed in CHO cells (Homo sapiens, UniProt Q5XXA6, DEL476-501)
Construct: expressed in transfected cells; host or cells: CHO cells, doxycycline-inducible expression under Blasticidin/Zeocin selection
Sequence (Q5XXA6 with tags, fused parts or gaps isoform Q5XXA6-5 DEL539-564): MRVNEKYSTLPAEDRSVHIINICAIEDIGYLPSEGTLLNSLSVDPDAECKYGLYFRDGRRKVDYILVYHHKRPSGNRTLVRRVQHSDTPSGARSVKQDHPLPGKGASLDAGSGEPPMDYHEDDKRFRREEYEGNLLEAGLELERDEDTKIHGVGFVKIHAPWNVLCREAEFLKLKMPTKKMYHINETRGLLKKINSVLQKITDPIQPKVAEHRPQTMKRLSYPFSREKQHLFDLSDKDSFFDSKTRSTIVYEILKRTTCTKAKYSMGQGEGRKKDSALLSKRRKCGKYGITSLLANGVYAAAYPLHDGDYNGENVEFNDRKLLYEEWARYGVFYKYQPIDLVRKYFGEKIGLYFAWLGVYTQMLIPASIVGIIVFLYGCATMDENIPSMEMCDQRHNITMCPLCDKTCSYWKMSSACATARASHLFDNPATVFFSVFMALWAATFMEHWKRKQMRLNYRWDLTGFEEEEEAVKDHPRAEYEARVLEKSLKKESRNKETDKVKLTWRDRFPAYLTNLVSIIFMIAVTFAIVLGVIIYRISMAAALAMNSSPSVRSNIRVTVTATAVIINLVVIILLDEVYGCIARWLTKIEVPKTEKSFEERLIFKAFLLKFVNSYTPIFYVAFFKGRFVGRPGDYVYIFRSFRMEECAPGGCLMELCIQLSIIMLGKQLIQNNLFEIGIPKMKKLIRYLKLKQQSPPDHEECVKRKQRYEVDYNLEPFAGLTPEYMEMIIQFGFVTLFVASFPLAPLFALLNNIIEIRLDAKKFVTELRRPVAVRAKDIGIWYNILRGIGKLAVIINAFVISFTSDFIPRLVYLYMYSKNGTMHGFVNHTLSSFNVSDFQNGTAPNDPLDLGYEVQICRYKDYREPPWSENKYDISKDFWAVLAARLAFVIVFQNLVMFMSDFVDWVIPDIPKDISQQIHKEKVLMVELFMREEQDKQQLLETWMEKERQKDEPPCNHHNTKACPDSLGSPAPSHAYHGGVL
Experiment: Automated patch clamping (QPatch) assay to measure TMEM16A activity in whole-cell
Format: cell-based
Details: CHO, maximum current at highest dose relative to reference potentiator at maximal concentration (upper limit) and vehicle (lower limit); read-out: TMEM16A QPATCH assay EC50 V3 Assay Window (% TMEM16A max activation)
Please don't drop the unit; write it after the number.

Completed entries (count: 3):
In [3]: df
Out[3]:
                                   compound  reported_value
0  CCC(CC)NC(=O)c1cnc(-c2cccc(-c3cc(C(=O)N[C@@H](C)C4CC4)n(C4COC4)n3)c2)o1            143%
1  CCC(CC)NC(=O)c1cnc(-c2cccc(-c3cc(C(=O)NCc4ccc5c(c4)OCO5)n[nH]3)c2)o1             60%
2  CCC(CC)NC(=O)c1cnc(-c2cccc(-c3cc(C(=O)NCC4CCC4)n[nH]3)c2)o1            124%

stdin: Which Emax is listed for `CCC(CC)NC(=O)c1cnc(-c2cccc(-c3cc(C(=O)N[C@@H](C)C4CC4)n(C)n3)c2)o1` ?
stdout: 131%

stdin: Consider the compound shown here: CCC(CC)NC(=O)c1cc(-c2cccc(-c3ncc(C(=O)NC(CC)C(C)C)o3)c2)[nH]n1 (centres unmarked) What is its recorded Emax?
stdout: 165%

stdin: # query: Emax of entry `CCC(CC)NC(=O)c1cnc(-c2cccc(-c3nc(C(=O)NC(CC)CC)n(CCN4CCCCC4)n3)c2)o1`
stdout: 161%

stdin: Which Emax is listed for `CCOC(=O)[C@@H](NC(=O)c1cnc(-c2cccc(-c3cc(C(=O)N[C@@H](C(=O)OC)C(C)C)[nH]n3)c2)o1)C(C)C` ?
stdout: 87%

----------
Molecular target: abc isoform of human TMEM16A channel expressed in CHO cells (Homo sapiens, UniProt Q5XXA6, DEL476-501)
Experiment: Automated patch clamping (QPatch) assay to measure TMEM16A activity in whole-cell
Details: CHO cells expressing human TMEM16A (abc), whole-cell automated patch clamp, Hill fit; read-out: TMEM16A QPATCH assay EC50 V3 EC50
pEC50: −log10 of the molar value. Counter-ions that a name gives are not always drawn.
y means recorded pEC50 is 7 or above; n means it is below 7.

>>> print(df.to_string())
                                   compound  assigned_label
0  CCC(CC)NC(=O)c1cnc(-c2cccc(-c3cc(C(=O)N[C@@H](C)CC)n[nH]3)c2)o1               y
1  CCC(CC)NC(=O)c1cc(-c2cccc(-c3ncc(C(=O)N[C@@H](CC(C)C)C(=O)NCC(=O)OC(C)(C)C)o3)c2)[nH]n1               n

stdin: Hi, just wondering whether `CCC(CC)NC(=O)c1cc(-c2cccc(-c3ncc(C(=O)N[C@@H](C)C(=O)OCc4ccccc4)o3)c2)[nH]n1` shows pEC50 of 7 or higher.
stdout: n

stdin: Determine whether this compound has pEC50 no lower than 7: CCOC(=O)[C@H](C)NC(=O)c1cc(-c2cccc(-c3ncc(C(=O)NC(CC)CC)o3)c2)[nH]n1 [Example 3.63, Trifluoroacetate]
stdout: n

stdin: Is pEC50 for `CCC(CC)NC(=O)c1cnc(-c2cccc(-c3cc(C(=O)N[C@@H](C)C4CC4)n(C)n3)c2)o1` at or above 7?
stdout: y

stdin: // inclusive: pEC50 at least 7? input: CCOC(=O)[C@H](NC(=O)c1cc(-c2cccc(-c3ncc(C(=O)NC(CC)CC)o3)c2)[nH]n1)c1ccccc1 [Example 3.59, Trifluoroacetate]
stdout: y

stdin: Quick check: does `COC(=O)[C@@H](NC(=O)c1cnc(-c2cccc(-c3nnc(C(=O)NC(C4CC4)C4CC4)[nH]3)c2)o1)C(C)C` have pEC50 greater than or equal to 7?
stdout: y

----------
Biological target: abc isoform of human TMEM16A channel expressed in CHO cells (Homo sapiens, UniProt Q5XXA6, DEL476-501)
Construct: expressed in transfected cells; host or cells: CHO cells, doxycycline-inducible expression under Blasticidin/Zeocin selection
Assay: Automated patch clamping (QPatch) assay to measure TMEM16A activity in whole-cell
Format: cell-based
Details: CHO cells expressing human TMEM16A (abc), whole-cell automated patch clamp, Hill fit; read-out: TMEM16A QPATCH assay EC50 V3 EC50
pEC50: −log10 of the molar value.
# binarize pEC50: threshold 7 inclusive, high side satisfied, low side not satisfied

molecule	assigned_label
CCC(CC)NC(=O)c1cnc(-c2cccc(-c3nc(C(=O)NC(CC)CC)n(CCOC)n3)c2)o1	not satisfied
C[C@H](NC(=O)c1cnc(-c2cccc(-c3nc(C(=O)N[C@@H](C)C4CC4)n(CCO)n3)c2)o1)C1CC1	not satisfied
CCOC(=O)[C@@H](NC(=O)c1cc(-c2cccc(-c3ncc(C(=O)NC(CC)CC)o3)c2)[nH]n1)C(C)C	satisfied
CCC(CC)NC(=O)c1cnc(-c2cccc(-c3cc(C(=O)N4CCC(C)(OC)CC4)n[nH]3)c2)o1	not satisfied
COC(=O)[C@@H](NC(=O)c1nc(-c2cccc(-c3ncc(C(=O)NC(C4CC4)C4CC4)o3)c2)n[nH]1)C(C)C	not satisfied

stdin: Entry C[C@H](NC(=O)c1cc(-c2cccc(-c3ncc(C(=O)NC(C4CC4)C4CC4)o3)c2)nn1CC(O)C(F)(F)F)C1CC1 (single isomer, unassigned) [Example 9.2 (ii)] : is its pEC50 no less than 7?
stdout: satisfied

stdin: Check the entry `CCOC(=O)[C@@H](NC(=O)c1cnc(-c2cccc(-c3cc(C(=O)NC(CC)CC)n(CCO)n3)c2)o1)C(C)C` : does pEC50 equal or exceed 7?
stdout: satisfied

stdin: State whether the measured pEC50 reaches 7, counting equality as reaching it, for `CCC(CC)NC(=O)c1cc(-c2cccc(-c3ncc(C(=O)N[C@@H](C)c4ccccc4)o3)c2)[nH]n1`
stdout: not satisfied

stdin: Kindly determine if pEC50 recorded for CCC(CC)NC(=O)c1cnc(-c2cccc(-c3cc(C(=O)N[C@@H](C)[C@H]4CCCO4)n[nH]3)c2)o1 (single isomer, unassigned) is above or exactly 7.
stdout: not satisfied

stdin: Answer whether pEC50 of `CCOC(=O)[C@@H](NC(=O)c1cnc(-c2cccc(-c3cc(C(=O)N[C@@H](C)C4CC4)n(CCO)n3)c2)o1)C(C)C` is greater than or equal to 7.
stdout: not satisfied

stdin: # bool: pEC50 of `COC(=O)[C@@H](NC(=O)c1cnc(-c2cccc(-c3nnc(C(=O)N[C@@H](C)C4CC4)[nH]3)c2)o1)C(C)(C)C` >= 7
stdout: not satisfied

----------
Item-by-item account of Emax
Target: abc isoform of human TMEM16A channel expressed in CHO cells (Homo sapiens, UniProt Q5XXA6, DEL476-501)
Construct: expressed in transfected cells; host or cells: CHO cells, doxycycline-inducible expression under Blasticidin/Zeocin selection
Test: Automated patch clamping (QPatch) assay to measure TMEM16A activity in whole-cell
Type: cell-based
Details: CHO, maximum current at highest dose relative to reference potentiator at maximal concentration (upper limit) and vehicle (lower limit); read-out: TMEM16A QPATCH assay EC50 V3 Assay Window (% TMEM16A max activation)
Provide the reading as a plain figure in %.

Recorded results for 3 molecules are shown here.
>>> print(df.to_string())
                                   molecule  readout_label  reported_value
0  CCC(CC)NC(=O)c1cnc(-c2cccc(-c3cc(C(=O)N[C@H](CCSC)C(=O)OC)n[nH]3)c2)o1           Emax              80
1  CCC(CC)NC(=O)c1cnc(-c2cccc(-c3cc(C(=O)N[C@H](C)C(C)C)n[nH]3)c2)o1           Emax             109
2  CCC(CC)NC(=O)c1cnc(-c2cccc(-c3cc(C(=O)NC(C)(C)CCc4ccccc4)n[nH]3)c2)o1           Emax              98

Let us examine a further case.
stdin: What measured Emax goes with CCOC(=O)[C@@H](NC(=O)c1cnc(-c2cccc(-c3nc(C(=O)NC(C4CC4)C(F)(F)F)n[nH]3)c2)o1)C(C)C (stereo partly shown) ?
stdout: 97

----------
Readings of Emax for the listed compounds
Biological target: abc isoform of human TMEM16A channel expressed in CHO cells (Homo sapiens, UniProt Q5XXA6, DEL476-501)
Construct: expressed in transfected cells; host or cells: CHO cells, doxycycline-inducible expression under Blasticidin/Zeocin selection
Test: Automated patch clamping (QPatch) assay to measure TMEM16A activity in whole-cell
Assay type: cell-based
Settings: CHO, maximum current at highest dose relative to reference potentiator at maximal concentration (upper limit) and vehicle (lower limit); read-out: TMEM16A QPATCH assay EC50 V3 Assay Window (% TMEM16A max activation)
Write the quantity with the unit trailing the number.

Examples with their reported Emax follow.
In [3]: df
Out[3]:
                  compound_structure_string  reported_value
0  CCC(CC)NC(=O)c1cc(-c2cccc(-c3ncc(C(=O)N[C@H](C)C(C)C)o3)c2)[nH]n1             19%
1  CCOC(=O)[C@@H](NC(=O)c1cnc(-c2cccc(-c3cc(C(=O)N[C@@H](C)C4CC4)n(CCO)n3)c2)o1)C(C)C            125%
2  CCOC(=O)CCCCCn1nc(-c2cccc(-c3ncc(C(=O)NC(CC)CC)o3)c2)nc1C(=O)NC(CC)CC             88%

Next, consider the following compound.
stdin: I am curious: what Emax value has been reported for `CCOC(=O)Cn1nc(-c2cccc(-c3ncc(C(=O)NC(CC)CC)o3)c2)nc1C(=O)NC(CC)CC` ?
stdout: 80%
